Biological target: human GPR55 (Homo sapiens, UniProt Q9Y2T6)
Construct: β-galactosidase enzyme fragment (PathHunter complementation tag)
Sequence (Q9Y2T6 whole entry, the tested form may be a part): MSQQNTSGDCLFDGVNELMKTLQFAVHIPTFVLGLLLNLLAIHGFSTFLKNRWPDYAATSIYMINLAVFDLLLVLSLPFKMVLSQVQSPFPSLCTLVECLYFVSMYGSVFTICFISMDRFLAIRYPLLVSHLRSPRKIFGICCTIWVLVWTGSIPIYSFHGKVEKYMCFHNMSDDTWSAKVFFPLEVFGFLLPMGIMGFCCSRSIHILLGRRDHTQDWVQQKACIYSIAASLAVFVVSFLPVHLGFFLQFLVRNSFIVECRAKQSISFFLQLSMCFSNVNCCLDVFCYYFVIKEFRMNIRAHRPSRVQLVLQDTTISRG
Test: β-Arrestin recruitment assay (PathHunter) at GPR55
Type: cell-based
Conditions: β-arrestin assay; percent in brackets beside EC50 >10 µM
measure: Human GPR55 % activation

Answered cases to consult:
* CCCCCn1nc(C(=O)Nc2cccc3cccnc23)c2ccccc21 [Compound 10, THJ] | 11%
* O=C(Nc1cccc2cccnc12)c1nn(CCCCCF)c2ccccc12 [Compound 11, 5F-THJ] | 28%
* Cc1c(C(=O)C2C(C)(C)C2(C)C)c2ccccc2n1CCCCCF [Compound 47, M-144] | −5%

Give its Human GPR55 % activation value. Item: CCCCCn1nc(C(=O)Oc2cccc3ccccc23)c2ccccc21 [Compound 22, SDB-005]
8%

Report Human GPR55 % activation for COc1cccc2c(C(=O)C3C4(C)CCC(C4)C3(C)C)c(C)n(CCN3CCOCC3)c12 (stereo not drawn) [Compound 48, MN-25] please.
−8%

Report Human GPR55 % activation for CCCCCn1cc(C(=O)Nc2ccccc2)c2ccccc21 [Compound 14, SDB-006-N-phenyl-analog] please.
20%

What value of measured Human GPR55 % activation is listed for CN1CCCCC1Cn1cc(C(=O)C2C(C)(C)C2(C)C)c2ccccc21 (stereo not drawn) [Compound 43, AB005] ?
16%

Could you share which Human GPR55 % activation value was measured for CCCCCn1cc(C(=O)NC23CC4CC(CC(C4)C2)C3)c2ccccc21 [Compound 15, APICA] ?
11%

Which Human GPR55 % activation reading was recorded for the molecule CC1(C)C(C(=O)c2nn(CCCCCF)c3ccccc23)C1(C)C [Compound 40, FAB-144] ?
5%

What value of Human GPR55 % activation has been reported for the following molecule? O=C(c1cn(CCCCCF)c2ccccc12)C12CC3CC(CC(C3)C1)C2 [Compound 36, 5F-AB001]
19%

What does the data say about its Human GPR55 % activation? Entry: CCCCCn1cc(C(=O)C23CC4CC(CC(C4)C2)C3)c2ccccc21 [Compound 35, AB001]
−14%
